System: common groundsel
experiment: Test D common groundsel
Format: in vivo, Senecio vulgaris
condition.notes: Rate 32 g/ha; Preemergence; 0 to 100 scale, 0 no injury, 100 complete control
Source text: […] Test chemicals were formulated in a non-phytotoxic solvent mixture which included a surfactant and applied preemergence to the surface of the pot containing seeds in a sandy loam soil. Untreated control pots and treated pots were placed in the greenhouse for growth and visually evaluated for injury 14 to 21 days after herbicide application. […]
experimental.endpoint: Plant response rating, Com. groundsel

Past entries and their recorded results:
INSERT INTO results (smiles_repr, experimental_endpoint, value_reported) VALUES
  ('C=CCn1c(=O)on(C(=O)N(c2ccc(F)cc2F)C(C)C)c1=O', 'Plant response rating, Com. groundsel', 0),
  ('CC(C)N(C(=O)n1oc(=O)n(C(C)C)c1=O)c1ccc(F)cc1', 'Plant response rating, Com. groundsel', 75),
  ('Cc1cccc(C)c1-n1c(=O)on(C(=O)N(c2ccc(F)cc2)C(C)C)c1=O', 'Plant response rating, Com. groundsel', 0);

Let's switch to this compound now.
Lookup: May I ask what Plant response rating, Com. groundsel has been recorded for CC(C)N(C(=O)n1oc(=O)n(C2CCCCC2)c1=O)c1ccc(F)cc1F ?
Found: 0

----------
Test system: rape
experiment: Test B pre/postemergence rape
Assay type: in vivo, Brassica napus
condition.notes: Preemergence, Rate 62 g/ha; scale of 0 to 10 where 0 is no effect and 10 is complete control
Task for the reader: assign each of the following molecules its reported Rape plant response rating.
Answers are plain numbers.

Past entries and their recorded results:
INSERT INTO measurements (smiles_repr, value_reported) VALUES
  ('COc1nc(OC)nc(N(C(=O)n2oc(=O)n(-c3ccccc3C)c2=O)C(C)C)n1', 0),
  ('CC(C)N(C(=O)n1oc(=O)n(CC(F)F)c1=O)c1ccc(F)cc1', 7),
  ('CC(C)N(C(=O)n1oc(=O)n(C(C)C)c1=O)c1cnccn1', 0);

Let's switch to this molecule now.
Lookup: May I ask what Rape plant response rating has been recorded for Cc1ccccc1-n1c(=O)on(C(=O)N(c2ccc(Cl)cc2Cl)C(C)C)c1=O ?
Found: 0

----------
Tested on: crabgrass
experiment: Test B pre/postemergence crabgrass
Assay type: in vivo, Digitaria sanguinalis
condition.notes: Preemergence, Rate 250 g/ha
Task for the reader: assign each of the following compounds its reported Crabgrass plant response rating (0 to 10 scale).
One number for each entry.

INSERT INTO assay_data (smiles_repr, value_reported) VALUES
  ('CCN(CC)C(=O)Cn1c(=O)on(C(=O)N(c2ccccc2)C(C)C)c1=O', 3);

Your task in this section: give Crabgrass plant response rating (0 to 10 scale) for each listed record.
1. CC(C)N(C(=O)n1oc(=O)n(CCCCF)c1=O)c1ccc(F)cc1F
2. CC(C)N(C(=O)n1oc(=O)n(CC2CCC2)c1=O)c1ccccc1
3. CC(C)N(C(=O)n1oc(=O)n(CCC2OCCCO2)c1=O)c1ccccc1

Found:
1. 10
2. 9
3. 9

----------
Tested on: surinam grass
experiment: Test B pre/postemergence surinam grass
Format: in vivo, Brachiaria decumbens
condition.notes: Postemergence, Rate 125 g/ha; scale 0 to 10, 0 is no effect, 10 is complete control
experimental.endpoint: B. signalgrass plant response rating
Give bare numbers.

Past entries and their recorded results:
INSERT INTO measurements (molecule, value_reported) VALUES
  ('CCN(CC)C(=O)Cn1c(=O)on(C(=O)N(c2ccccc2)C(C)C)c1=O', 0),
  ('CC(C)N(C(=O)n1oc(=O)n(C(C)C(=O)c2ccccc2)c1=O)c1ccc(F)cc1F (centres unmarked)', 0),
  ('CC(C)N(C(=O)n1oc(=O)n(COCc2ccccc2)c1=O)c1ccc(F)cc1F', 0);

Your task in this section: give B. signalgrass plant response rating for each listed record.
1. CC(C)N(C(=O)n1oc(=O)n(C[Si](C)(C)C)c1=O)c1ccccc1
2. CC(C)N(C(=O)n1oc(=O)n(CC(=O)C2CC2)c1=O)c1ccccc1

Found:
[0, 2]
